Entries annotated with measured CD22: CD20+/CD20- (ratio of median fluorescent intensity)
system: T1, human CD22 on B cells of human PBMCs (human, UniProt P20273 20-847)
T1 construct: whole, on cells; also called CD22 on human B cells
protocol_summary: flow cytometry; Alexa Fluor 647-labelled antibody, human PBMCs
value_type: CD22: CD20+/CD20- (ratio of median fluorescent intensity) (fold)

>  <binder>
TNT75 (antibody, human IgG1, kappa, V domains shown) VH: EVQLVESGGGLVQPGGSLRLSCAASGFTFSSYEMNWVRQAPGKGLEWVSYISSSGSTIYYADSVKGRFTISRDNAKNSLYLQMNSLRAEDTAVYYCARHSGYGTHWGVLFAYWGRGTLVTVSS VL: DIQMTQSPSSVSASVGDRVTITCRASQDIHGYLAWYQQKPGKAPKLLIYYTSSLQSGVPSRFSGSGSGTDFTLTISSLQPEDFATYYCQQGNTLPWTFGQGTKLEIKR

>  <measured_number>
26.7

$$$$
>  <binder>
TNT82 (antibody, human IgG1, kappa, V domains shown) VH: QVQLLESGGGVVQPGGSLRLSCAASGFAFSIYDMNWVRQAPGKGLEWVSAISSGGGTTYYADSVKGRFTISRDNAKNSLYLQMNSLRAEDTAVYYCARHSGYGTHWGVLFAYWGRGTLVTVSS VL: EIVLTQSPATLSLSPGERATLSCRASQDIHGYLNWYQQKPGQAPRLLIYYTSILHSGIPARFSGSGPGTDFTLTISSLEPEDFAVYYCQQGNTLPWTFGGGTKLEIKR

>  <measured_number>
23.9

$$$$
>  <binder>
TNT85 (antibody, human IgG1, kappa, V domains shown) VH: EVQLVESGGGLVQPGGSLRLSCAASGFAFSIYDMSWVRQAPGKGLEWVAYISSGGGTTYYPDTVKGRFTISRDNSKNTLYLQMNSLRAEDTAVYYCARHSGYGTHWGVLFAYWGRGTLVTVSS VL: DIVMTQTPLSLSVTPGQPASISCRASQDIHGYLNWYQQKPGQSPQLLIYYTSILHSGVPDRFSGSGSGTDFTLKISRVEAEDVGVYFCQQGNTLPWTFGGGTKLEIKR

>  <measured_number>
23.1

$$$$
